All figures here come from patent US8163909B2.

# TARGET: Beta Secretase enzyme (BACE) (Homo sapiens)
# Sequence (P56817 46-501): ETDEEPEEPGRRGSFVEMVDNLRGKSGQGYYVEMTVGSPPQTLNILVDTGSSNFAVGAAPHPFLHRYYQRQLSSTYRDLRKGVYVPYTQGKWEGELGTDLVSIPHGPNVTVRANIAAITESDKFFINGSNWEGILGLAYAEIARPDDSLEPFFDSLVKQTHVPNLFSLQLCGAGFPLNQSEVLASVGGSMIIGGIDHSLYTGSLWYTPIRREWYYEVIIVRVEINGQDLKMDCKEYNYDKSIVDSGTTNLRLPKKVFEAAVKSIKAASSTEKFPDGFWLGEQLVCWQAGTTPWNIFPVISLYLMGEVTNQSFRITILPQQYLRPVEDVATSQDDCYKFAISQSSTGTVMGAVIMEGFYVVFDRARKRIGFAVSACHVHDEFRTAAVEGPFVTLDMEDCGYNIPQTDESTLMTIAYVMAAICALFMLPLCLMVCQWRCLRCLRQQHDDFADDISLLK
# PROTOCOL_DESCRIPTION: In vitro enzymatic BACE FRET (fluorescence resonance energy transfer) assay;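 further: fluorescence read after 1 h with 50 nM quenched peptide substrate spanning the BACE cleavage site, in pH 4.2 acetate buffer containing 10% DMSO and nonionic detergent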
# Format: biochemical
# CONDITION_LABEL: BACE enzyme assay, IC50's in uM; read-out: BACE1 FRET assay
ATTRIBUTE_MEASURED: IC50 (µM)

compound="CC(C)(C)Cc1cnc2c(c1)[C@@H](NC[C@@H](O)[C@H](Cc1ccc(F)cc1)NC(=O)[C@@H]1CN(Cc3cncs3)CCO1)CC1(CCC1)O2 [compound 788]" measurement_units=µM recorded_result=0.016
compound="COC(OC)C(=O)N[C@@H](Cc1cc(F)cc(-c2nccs2)c1)[C@H](O)CN[C@H]1CC2(CCC2)Oc2ncc(CC(C)(F)F)cc21 [compound 818]" measurement_units=µM recorded_result=0.013
compound="C#Cc1cccc(C[C@H](NC(=O)C(OC)OC)[C@H](O)CN[C@H]2CC3(CCC3)Oc3ncc(CC(C)(C)C)cc32)c1 [Example 844]" measurement_units=µM recorded_result=0.005
compound="COCC(=O)N[C@@H](Cc1ccc(-c2nccs2)cc1)[C@H](O)CN[C@H]1CC2(CCC2)Oc2ncc(CC(C)C)cc21 [Example 434]" measurement_units=µM recorded_result=0.075
compound="CC(C)(C)Cc1cnc2c(c1)[C@@H](NC[C@@H](O)[C@H](Cc1ccc(F)cc1)NC(=O)[C@@H]1CN(Cc3nccs3)CCO1)CC1(CCC1)O2 [compound 769]" measurement_units=µM recorded_result=0.01
compound="C#Cc1cccc(C[C@H](NC(=O)COC)[C@H](O)CN[C@H]2CC3(CCC3)Oc3ncc(CC(C)C)cc32)c1 [Example 756]" measurement_units=µM recorded_result=0.005
